Test: Pharmacokinetics after 21 days dosing in the efficacy study (plasma, tumor and brain concentrations; plasma AUC at steady state), Example 14
Type: in vivo, female BALB/c nude mice
Conditions: mouse, plasma, po; 5 mg/kg p.o. BID x 21 days; 0.5 h; mean ± SEM
Measure name: concentration at 0.5 h (ng/mL)
One number for each entry, in ng/mL.

Assign concentration at 0.5 h to the following record: CCN(C)S(=O)(=O)Nc1ccc(F)c(Oc2ccc3ncn(C4CC5(CCN(C6CC7(C6)CN(c6cc8c(cc6F)c(N6CCC(=O)NC6=O)nn8C)C7)CC5)C4)c(=O)c3c2)c1C#N (stereo not shown)
6300

* * *

Assay: Pharmacokinetics after 21 days dosing in the efficacy study (plasma, tumor and brain concentrations; plasma AUC at steady state), Example 14
Type: in vivo, female BALB/c nude mice
Conditions: mouse, tumor, po; 3 mg/kg p.o. QD x 21 days; 24 h; read-out: Concentration in Tumor
Procedure: Agents were tested in the A375 human melanoma xenografts. […] Dabrafenib, Compound 26 and Compound 141 in female BALB/c nude mice plasma (K2-EDTA), tumor and brain homogenate were analyzed by LC-MS/MS (Triple Quad 6500+ Low Mass). […]
Measure name: concentration at 24 h
Please answer using a numeric value trailed by its unit.

Assign concentration at 24 h to the following record: CCN(C)S(=O)(=O)Nc1ccc(F)c(Oc2ccc3ncn(C4CC5(CCN(C6CC7(C6)CN(c6cc8c(cc6F)c(N6CCC(=O)NC6=O)nn8C)C7)CC5)C4)c(=O)c3c2)c1C#N (stereo not shown) [Compound 141]
3.01 ng/g

* * *

Test: Pharmacokinetics in female BALB/c nude mice bearing A375 xenografts, 1 day dosing (PK and PD study): plasma, tumor and brain concentrations, AUC
Format: in vivo
Conditions: mouse, plasma, po, 0.75 mg/kg, 0.75 mg/kg p.o. BID × 1 day; post 1st dose; 2 h; read-out: Mean Concentration in Plasma ± SEM
Measure name: concentration at 2 h (ng/mL)
Numbers only, in ng/mL.

Assign concentration at 2 h to the following record: CCN(C)S(=O)(=O)Nc1ccc(F)c(Oc2ccc3ncn(C4CC5(CCN(C6CC7(C6)CN(c6cc8c(cc6F)c(N6CCC(=O)NC6=O)nn8C)C7)CC5)C4)c(=O)c3c2)c1C#N (stereo not shown) [Compound 141]
972

* * *

Molecular target: human bile salt export pump (BSEP) efflux transporter (Homo sapiens, UniProt O95342)
Construct: purchased SOLVO Biotechnology Charles River Laboratories, Szeged, Hungary; host or cells: HEK293 (inside out membrane vesicles)
Sequence (O95342 whole entry): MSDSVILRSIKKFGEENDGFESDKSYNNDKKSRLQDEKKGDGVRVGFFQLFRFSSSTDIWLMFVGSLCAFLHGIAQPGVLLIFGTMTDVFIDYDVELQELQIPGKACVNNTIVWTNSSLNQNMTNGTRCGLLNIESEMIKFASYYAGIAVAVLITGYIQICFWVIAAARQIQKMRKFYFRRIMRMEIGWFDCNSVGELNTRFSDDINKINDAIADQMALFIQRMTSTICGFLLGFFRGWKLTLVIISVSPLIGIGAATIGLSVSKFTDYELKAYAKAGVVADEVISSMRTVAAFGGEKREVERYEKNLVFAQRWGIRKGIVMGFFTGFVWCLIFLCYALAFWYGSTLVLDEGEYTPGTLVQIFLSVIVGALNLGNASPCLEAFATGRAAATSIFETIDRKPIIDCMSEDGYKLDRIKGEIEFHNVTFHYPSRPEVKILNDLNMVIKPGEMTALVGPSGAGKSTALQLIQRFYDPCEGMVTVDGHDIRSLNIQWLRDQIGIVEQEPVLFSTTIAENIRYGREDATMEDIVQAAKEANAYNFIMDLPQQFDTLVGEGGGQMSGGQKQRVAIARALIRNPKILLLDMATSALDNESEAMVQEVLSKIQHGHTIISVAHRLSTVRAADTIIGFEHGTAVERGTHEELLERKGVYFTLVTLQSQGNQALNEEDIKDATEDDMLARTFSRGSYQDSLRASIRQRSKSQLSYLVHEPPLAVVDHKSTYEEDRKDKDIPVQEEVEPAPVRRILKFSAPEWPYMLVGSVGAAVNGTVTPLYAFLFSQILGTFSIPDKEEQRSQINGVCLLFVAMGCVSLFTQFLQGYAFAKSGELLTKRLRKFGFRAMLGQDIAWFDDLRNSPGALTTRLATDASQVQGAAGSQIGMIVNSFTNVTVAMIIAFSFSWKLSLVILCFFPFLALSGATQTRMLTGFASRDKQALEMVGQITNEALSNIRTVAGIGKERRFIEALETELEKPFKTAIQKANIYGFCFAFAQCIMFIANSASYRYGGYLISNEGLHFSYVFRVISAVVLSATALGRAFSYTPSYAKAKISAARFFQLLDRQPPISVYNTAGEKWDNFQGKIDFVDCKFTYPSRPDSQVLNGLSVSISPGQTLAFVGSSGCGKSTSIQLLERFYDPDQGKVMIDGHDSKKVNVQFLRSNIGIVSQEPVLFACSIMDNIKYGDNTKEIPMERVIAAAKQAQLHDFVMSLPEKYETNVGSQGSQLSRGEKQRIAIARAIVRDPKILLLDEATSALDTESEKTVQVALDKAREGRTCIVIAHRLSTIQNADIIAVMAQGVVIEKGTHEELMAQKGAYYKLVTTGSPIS
Assay: BSEP Vesicular Transport Inhibition Assay (IC50 determination)
Format: biochemical
Conditions: human BSEP (HEK293) vesicles; taurocholate 0.2 μM; 4 mM Mg-ATP; 10 concentrations, 1 replicate; in nM
Measure name: BSEP Inhibition/IC50
Answers are plain numbers.

>  <Molecule>
CC(C)S(=O)(=O)Nc1ccc(F)c(Oc2ccc3ncn(C4CC5(CCN(C6CC7(C6)CN(c6cc8c(cc6F)c(N6CCC(=O)NC6=O)nn8C)C7)CC5)C4)c(=O)c3c2)c1C#N (stereo not drawn)

>  <System under test>
human bile salt export pump (BSEP) efflux transporter (Homo sapiens, UniProt O95342)

>  <BSEP Inhibition/IC50>
20580

$$$$

Okay, next one:
Assign BSEP Inhibition/IC50 to the following record: CCN(C)S(=O)(=O)Nc1ccc(F)c(Oc2ccc3ncc(OC4CC5(CCN(C6CCC(c7cc8c(cc7F)c(N7CCC(=O)NC7=O)nn8C)CC6)CC5)C4)nc3c2)c1C#N (single isomer, unassigned)
13210

* * *

Test: Pharmacokinetics in female BALB/c nude mice bearing A375 xenografts, 1 day dosing (PK and PD study): plasma, tumor and brain concentrations, AUC
Format: in vivo
Settings: mouse, plasma, po, 1.5 mg/kg, 1.5 mg/kg p.o. BID × 1 day; post 1st dose; 2 h; read-out: Mean Concentration in Plasma ± SEM
Measure name: concentration at 2 h (ng/mL)
Numbers only, in ng/mL.

Assign concentration at 2 h to the following record: CCN(C)S(=O)(=O)Nc1ccc(F)c(Oc2ccc3ncn([C@H]4COC5(CCN(C6CC7(C6)CN(c6cc8c(cc6F)c(N6CCC(=O)NC6=O)nn8C)C7)CC5)C4)c(=O)c3c2)c1C#N
3090

* * *

Assay: Pharmacokinetics in female BALB/c nude mice bearing A375 xenografts, 1 day dosing (PK and PD study): plasma, tumor and brain concentrations, AUC
Assay type: in vivo
Conditions: mouse, brain, po; 10 mg/kg p.o. BID × 1 day; read-out: Brain AUC at 24 hours, Average
Measure name: AUC at 24 h (ng·h/mL)
Give bare numbers, in ng·h/mL.

Assign AUC at 24 h to the following record: CCN(C)S(=O)(=O)Nc1ccc(F)c(Oc2ccc3ncn([C@H]4COC5(CCN(C6CC7(C6)CN(c6cc8c(cc6F)c(N6CCC(=O)NC6=O)nn8C)C7)CC5)C4)c(=O)c3c2)c1C#N [Compound 26]
2100

* * *

Assay: Example 8 pharmacokinetics assay for efficacy study (plasma, liver)
Format: in vivo, BALB/c nude mice
Conditions: mouse, liver, po, 10 mg/kg, p.o., BID × 21 days, read-out: Concentration in Liver (mean ± SEM)
Measure name: concentration at 6 h
Please answer using a numeric value trailed by its unit.

>  <Molecule>
CCN(C)S(=O)(=O)Nc1ccc(F)c(Oc2ccc3ncn(C4CC5(CCN(C6CCC(c7cc8c(cc7F)c(N7CCC(=O)NC7=O)nn8C)CC6)CC5)C4)c(=O)c3c2)c1C#N (single isomer, unassigned)

>  <concentration at 6 h>
738 ng/g

$$$$

Assign concentration at 6 h to the following record: CCN(C)S(=O)(=O)Nc1ccc(F)c(Oc2ccc3ncn([C@H]4COC5(CCN(C6CC7(C6)CN(c6cc8c(cc6F)c(N6CCC(=O)NC6=O)nn8C)C7)CC5)C4)c(=O)c3c2)c1C#N
4720 ng/g

* * *

Experiment: Example 7 pharmacokinetics assay for PKPD study (plasma, tumor, liver)
Type: in vivo, BALB/c nude mice
Settings: mouse, liver, po; 100 mg/kg, p.o., single dose; 6 h; read-out: Concentration in Liver (mean ± SEM)
Measure name: concentration at 6 h (ng/g)
One number for each entry, in ng/g.

Assign concentration at 6 h to the following record: CC(C)(C)c1nc(-c2cccc(NS(=O)(=O)c3c(F)cccc3F)c2F)c(-c2ccnc(N)n2)s1 [Dabrafenib, dabrafenib, reference compound]
2450

* * *

Would you mind telling me the reported GI50 of each entry?
Test system: A375-NRAS^Q61K cells
Assay: CTGlo Cell Viability Assay, A375-NRAS^Q61K (A375.11) cells, 96 hours
Type: cell-based, human
Conditions: Homo sapiens, 96 h, A375.11 (A375-NRAS^Q61K) cells

Illustrative cases are given below, each with its answer.
>  <Molecule>
CN(CCO)S(=O)(=O)Nc1ccc(F)c(Oc2ccc3ncn([C@H]4COC5(CCN(C6CCC(c7cc8c(cc7F)c(N7CCC(=O)NC7=O)nn8C)CC6)CC5)C4)c(=O)c3c2)c1C#N (single isomer, unassigned)

>  <GI50>
1 to 10 µM

$$$$
>  <Molecule>
Cn1nc(N2CCC(=O)NC2=O)c2cc(F)c(C3CCC(N4CCC5(CC4)C[C@@H](n4cnc6ccc(Oc7c(F)ccc(NS(=O)(=O)N8CC[C@@H](F)C8)c7C#N)cc6c4=O)CO5)CC3)cc21 (single isomer, unassigned)

>  <GI50>
< 1 µM

$$$$
>  <Molecule>
CC(C)S(=O)(=O)Nc1ccc(F)c(Oc2ccc3ncn([C@H]4COC5(CCN(C6CCC(c7cc8c(cc7F)c(N7CCC(=O)NC7=O)nn8C)CC6)CC5)C4)c(=O)c3c2)c1C#N (single isomer, unassigned)

>  <GI50>
< 1 µM

$$$$

List GI50 for every entry below, keeping the order given.
1. CCN(C)S(=O)(=O)Nc1ccc(F)c(Oc2ccc3ncn(C4CC5(CCN(C6CCC(c7cc8c(cc7F)c(N7CCC(=O)NC7=O)nn8C)CC6)CC5)C4)c(=O)c3c2)c1C#N (single isomer, unassigned)
2. CO[C@H]1CCN(S(=O)(=O)Nc2ccc(F)c(Oc3ccc4ncn([C@H]5COC6(CCN(C7CCC(c8ccc(NC9CCC(=O)NC9=O)cc8F)CC7)CC6)C5)c(=O)c4c3)c2C#N)C1 (single isomer, unassigned)
3. CCN(C)S(=O)(=O)Nc1ccc(F)c(Oc2ccc3ncn(C4CC5(CCN(C6CCN(c7cc8c(cc7F)c(N7CCC(=O)NC7=O)nn8C)CC6)CC5)C4)c(=O)c3c2)c1C#N
4. CCN(C)S(=O)(=O)Nc1ccc(F)c(Nc2ccc3ncn([C@H]4COC5(CCN(C6CCC(c7cc8c(cc7F)c(N7CCC(=O)NC7=O)nn8C)CC6)CC5)C4)c(=O)c3c2F)c1C#N (single isomer, unassigned)
5. CCN(C)S(=O)(=O)Nc1ccc(F)c(Oc2ccc3ncn(C4[C@H]5CN(C6CCC(c7cc8c(cc7F)c(N7CCC(=O)NC7=O)nn8C)CC6)C[C@@H]45)c(=O)c3c2)c1C#N (single isomer, unassigned)
6. CCN(C)S(=O)(=O)Nc1ccc(F)c(Oc2ccc3ncn(C4CC5(C4)CN(CC4CCN(c6cc7c(cc6F)c(N6CCC(=O)NC6=O)nn7C)CC4)C5)c(=O)c3c2)c1C#N

1: < 1 µM; 2: < 1 µM; 3: < 1 µM; 4: < 1 µM; 5: 1 to 10 µM; 6: < 1 µM

List GI50 for every entry below, keeping the order given.
1. CCN(C)S(=O)(=O)Nc1ccc(F)c(Oc2ccc3ncc(OCC4CCN(C5CC6(C5)CN(c5cc7c(cc5F)c(N5CCC(=O)NC5=O)nn7C)C6)CC4)nc3c2)c1C#N
2. CCN(C)S(=O)(=O)Nc1ccc(F)c(Oc2ccc3ncc(C4CC5(C4)CN(C4CCC(c6cc7c(cc6F)c(N6CCC(=O)NC6=O)nn7C)CC4)C5)nc3c2)c1C#N (single isomer, unassigned)
3. CCN(C)S(=O)(=O)Nc1ccc(F)c(Oc2ccc3ncn([C@H]4COC5(CCN(C6CCC(c7ccc(NC8CCC(=O)NC8=O)cc7F)CC6)CC5)C4)c(=O)c3c2)c1F (single isomer, unassigned)
4. CN(CCO)S(=O)(=O)Nc1ccc(F)c(Oc2ccc3ncc(C4CC5(C4)CN(C4CCC(c6cc7c(cc6F)c(N6CCC(=O)NC6=O)nn7C)CC4)C5)nc3c2)c1C#N (single isomer, unassigned)
5. CC(C)S(=O)(=O)Nc1ccc(F)c(Oc2ccc3ncn(C4CC5(CCN(C6CC7(C6)CN(c6cc8c(cc6F)c(N6CCC(=O)NC6=O)nn8C)C7)CC5)C4)c(=O)c3c2)c1C#N (stereo not drawn)
6. CCN(C)S(=O)(=O)Nc1ccc(F)c(C(=O)c2ccc3ncn(C4CC5(CCN(C6CCC(c7cc8c(cc7F)c(N7CCC(=O)NC7=O)nn8C)CC6)CC5)C4)c(=O)c3c2)c1F (single isomer, unassigned)
7. CCN(C)S(=O)(=O)Nc1ccc(F)c(Oc2ccc3ncn(CC4CCN(C5CCC(c6cc7c(cc6F)c(N6CCC(=O)NC6=O)nn7C)CC5)CC4)c(=O)c3c2)c1C#N (single isomer, unassigned)
8. Cn1nc(N2CCC(=O)NC2=O)c2cc(F)c(N3CC4(CC(N5CCC6(CC5)CC(n5cnc7ccc(Oc8c(F)ccc(NS(=O)(=O)C9CCC9)c8C#N)cc7c5=O)C6)C4)C3)cc21

["1 to 10 µM", "1 to 10 µM", "< 1 µM", "> 10 µM", "< 1 µM", "1 to 10 µM", "1 to 10 µM", "< 1 µM"]

Assign GI50 to the following record: CCN(C)S(=O)(=O)Nc1ccc(F)c(Oc2ccc3ncn([C@H]4C[C@@H]5CN(C6CCC(c7cc8c(cc7F)c(N7CCC(=O)NC7=O)nn8C)CC6)C[C@@H]5C4)c(=O)c3c2)c1C#N (single isomer, unassigned)
> 10 µM
